FYI, the data here is from PubChem BioAssay (NCI).

# System: TK-10 renal
# EXPERIMENTAL_PROTOCOL: NCI tumour cell line growth inhibition, 48 h
PARAMETER_MEASURED: TGI (µM)
Report only the number, with the unit µM understood.

| COMPOUND_STRUCTURE_STRING | TGI (µM) |
| --- | --- |
| COc1ccc2nc3c([N+](=O)[O-])ccc4c3c(c2c1)N=CN4CCN(C)C | 21.1 |

Kindly review the next compound as well.
Task: Provide TGI, tested on TK-10 renal, for "CC1=C(N2CC2)C(=O)C(C)=C(N2CC2)C1=O" .
Result: 1.5

====

# Test system: ACHN renal
# EXPERIMENTAL_PROTOCOL: NCI tumour cell line growth inhibition, 48 h
PARAMETER_MEASURED: TGI

| COMPOUND | RESULT |
| --- | --- |
| Oc1ccccc1CNCc1ccccc1O | > 100 µM |

Task: Specify TGI for "COc1ccc(OC)c(CCc2ccccc2CC(=O)O)c1" and stop.
Result: > 100 µM

====

Examples of compounds with documented TGI follow.
# System: CCRF-CEM leukemia
# EXPERIMENTAL_PROTOCOL: NCI tumour cell line growth inhibition, 48 h

| COMPOUND | TGI |
| --- | --- |
| CSC(=NC(=O)c1ccccc1)SCCSC(=NC(=O)c1ccccc1)SC | > 100 µM |
| O=S1(=O)OCCOS(=O)(=O)C1(Br)Br | > 100 µM |
| S=C1C(CCCOCc2ccccc2)C2CCCC23CC2(CCN13)OCCS2 (stereo not given) | > 10 µM |

Task: Specify TGI for "O=C1/C=C/[C@@H](O)[C@@H]2C[C@@H](O)C[C@H]2/C=C/CCC[C@H](CCc2ccc(NC(=S)Nc3ccc4c(c3)C(=O)OC43c4ccc(O)cc4Oc4cc(O)ccc43)cc2)O1" and stop.
Result: > 100 µM

Task: Specify TGI for "O=C(N/N=C\c1ccc(Cl)cc1)Nc1cccc2ccccc12" and stop.
Result: > 31.9 µM

====

Examples of molecules with documented TGI follow.
# Tested on: HOP-62 NSCLC
# EXPERIMENTAL_PROTOCOL: NCI tumour cell line growth inhibition, 48 h

Below, each entry is followed by its recorded TGI result.
| MOLECULE | RESULT |
| --- | --- |
| COc1ccc(C(=O)Nc2ccn(CCOC(=O)c3ccc(OC)cc3)c(=O)n2)cc1 | > 100 µM |
| CCOC(=O)C12CCC(c3c(C)cccc3C)(O1)C(C(=O)OC)=C2C(=O)OC (stereo unspecified) | > 10 µM |
| CCOC(=O)CN1C(=O)c2c(NC(=O)C(=O)O)cccc2S1(=O)=O | > 100 µM |
| CCCC1(N2C(=O)c3ccc4c5c(ccc(c35)C2=O)N(C2(CCC)CCCCC2)C4=O)CCCCC1 | > 100 µM |
| N#Cc1ccc(C(=O)c2cnn(-c3ccc(F)cc3)c2N)cc1 | > 25 µM |

Task: Specify TGI for "COC(=O)/C=C(C)/C=C/c1c(C)c(C(C)=O)c(C)n1C" and stop.
Result: > 100 µM

Task: Specify TGI for CCOC1Oc2ccccc2C(=O)/C1=C\Nc1ccc(C(=O)O)c(O)c1 (stereo unspecified) and stop.
Result: > 100 µM

Task: Specify TGI for NC1C2C=CC(C2)C1C(=O)O (stereo unspecified) and stop.
Result: > 100 µM

Task: Specify TGI for "NS(=O)(=O)c1ccc(-n2nc(-c3ccccc3)cc2-c2cc(O)ccc2O)cc1" and stop.
Result: > 100 µM

Task: Specify TGI for "COC(=O)CCc1cc(OC)c2oc(-c3ccc(OC)c(OC)c3)c(CO)c2c1" and stop.
Result: > 100 µM

Task: Specify TGI for O=C(O)C1C2C=CC(O2)C1C(=O)NCc1ccncc1 (stereo unspecified) and stop.
Result: > 100 µM

====

# System: DU-145 prostate
# EXPERIMENTAL_PROTOCOL: NCI tumour cell line growth inhibition, 48 h
PARAMETER_MEASURED: TGI

| MOLECULE | RESULT |
| --- | --- |
| O=C(NCCCN1CCN(CCCNC(=O)c2cc(-c3ccccc3)nc3ccccc23)CC1)c1cc(-c2ccccc2)nc2ccccc12 | > 67.1 µM |
| CCOC(=O)Cc1ccc(Nc2nc3cc(F)c(F)cc3nc2C(=O)OCC)cc1 | > 100 µM |
| COC(=O)c1cc2c([nH]c3ccccc32)c(-c2nc3ccccc3cc2CO)n1 | > 100 µM |
| C/C1=C\CC[C@@]2(C)O[C@@H]2C[C@@H]2[C@H](C/C(C)=C/CC1)OC(=O)[C@]21CO1 | > 100 µM |
| CCOC(=O)c1c(Br)c(-c2ccc([N+](=O)[O-])cc2)c(Br)n1C | > 10 µM |
| O=C(OCC1CC(C2(O)CCCCC2)C(=O)O1)c1ccccc1 (configuration not stated) | > 100 µM |
| Cc1ccc2c(c1)C(=O)/C(=C/c1cccc(OCC(=O)c3ccc(Cl)cc3)c1)CS2 | > 100 µM |
| COc1ccc(C(SCCO)(c2ccc(OC)cc2)c2ccc(OC)cc2)cc1 | > 100 µM |
| CC(NNC(=S)N1CCCC1)c1cccnn1 (configuration not stated) | > 70 µM |
| O=C(O)c1ccc(Nc2nc3ccc(C(F)(F)F)cc3nc2C(=O)O)cc1 | > 100 µM |

Task: Specify TGI for "Cc1c(C(=O)/C=C/c2ccc(Cl)cc2)nnn1-c1ccnc2c(C(F)(F)F)cccc12" and stop.
Result: > 100 µM

Task: Specify TGI for "Fc1ccc(-c2c(-c3ccncc3)[nH]c3cccnc23)cc1" and stop.
Result: > 25 µM

====

# Tested on: NCI-H23 lung
# EXPERIMENTAL_PROTOCOL: NCI tumour cell line growth inhibition, 48 h
PARAMETER_MEASURED: GI50

Below, each entry is followed by its recorded GI50 result.
| COMPOUND_STRUCTURE_STRING | GI50 |
| --- | --- |
| COc1ccc(Cl)cc1Nc1nc(C(F)(F)F)ccc1C(=O)N/N=C/c1ccccc1Cl | 2.99 µM |
| CN(CO)c1nc(N(C)CO)nc(N(C)CO)n1 | 25.4 µM |
| CN(C)C[C@@H]1CCn2cc(c3ccccc32)C2=C(C(=O)NC2=O)c2cn(c3ccccc23)CCO1 | 2.95 µM |

Kindly review the next compound as well.
Task: Specify GI50 for "O=C1c2c(c3c4ccccc4n(CCCCCCN4CCOCC4)c3c3[nH]c4ccccc4c23)C(=O)N1O" and stop.
Result: 15.8 µM

====

# System: DMS 273 small cell lung
# EXPERIMENTAL_PROTOCOL: NCI tumour cell line growth inhibition, 48 h
PARAMETER_MEASURED: TGI (µM)
Report only the number, with the unit µM understood.

Task: Specify TGI for CCCCCCCCCCCCCCCCCC(=O)NCC(COP(=O)([O-])OCC[N+](C)(C)C)OCC (stereo not given) and stop.
Result: 0.284

Task: Specify TGI for COc1ccccc1/C=C1\CCC(CN2CCOCC2)C1=O (stereo not given) and stop.
Result: 28.4

====

# Tested on: A498 renal
# EXPERIMENTAL_PROTOCOL: NCI tumour cell line growth inhibition, 48 h
Examples of compounds with documented TGI follow.

| COMPOUND | TARGET_DESC | RESULT |
| --- | --- | --- |
| Cc1ccc2nc(-c3nccn3C)cc(C(=O)NC(C)CN(C)C)c2c1 (stereo not drawn) | A498 renal | > 100 µM |
| CC(=O)C(C(=O)C(=O)Nc1cc(Cl)c(Cl)cc1Cl)c1csc(N)n1 (stereo not drawn) | A498 renal | > 100 µM |

Task: Specify TGI for "CC(C)(C)c1cc(OCc2n[nH]c(=S)n2N)c(Cl)cc1OCc1n[nH]c(=S)n1N" and stop.
Result: > 100 µM

====

Examples of molecules with documented TGI follow.
# System: HL-60(TB) leukemia
# EXPERIMENTAL_PROTOCOL: NCI tumour cell line growth inhibition, 48 h

Below, each entry is followed by its recorded TGI result.
| MOLECULE | RESULT |
| --- | --- |
| COc1ccc(OC)c(CCc2ccccc2CC(=O)O)c1 | > 100 µM |
| C/C(CC(=O)Nc1cccc([N+](=O)[O-])c1)=N/NC(N)=S | > 100 µM |
| CCCCCC1CC(C(C)=O)CN1c1ccc(F)cc1 (stereo not given) | > 10 µM |

Kindly review the next molecule as well.
Task: Specify TGI for "O=c1oc2c(O)c(O)cc3c(=O)oc4c(O)c(O)cc1c4c23" and stop.
Result: > 100 µM

====

Examples of compounds with documented TGI follow.
# Test system: 786-0 renal
# EXPERIMENTAL_PROTOCOL: NCI tumour cell line growth inhibition, 48 h

| COMPOUND | TARGET_DESC | PARAMETER_MEASURED | RESULT |
| --- | --- | --- | --- |
| CC(=O)OC(C)(C)C[N+](=O)[O-] | 786-0 renal | TGI | > 100 µM |
| CC(NNC(=S)N1CCCC1)c1cccnn1 (configuration not stated) | 786-0 renal | TGI | > 100 µM |
| O=C1Nc2n[nH]c(=S)n2NC12c1ccccc1-c1ccccc12 | 786-0 renal | TGI | > 100 µM |
| S=C1C(CCCOCc2ccccc2)C2CCCC23CC2(CCN13)OCCS2 (configuration not stated) | 786-0 renal | TGI | > 10 µM |
| O=C1/C(=C/c2cccc([N+](=O)[O-])c2)Cc2ccccc21 | 786-0 renal | TGI | > 100 µM |

Task: Specify TGI for COC(=O)/C(=N\Nc1nc(=S)[nH]n1N)C(C#N)c1ccc(Cl)cc1 (configuration not stated) and stop.
Result: > 100 µM
